# measurement_description: viability loss of HPDE-C7K cells – cell-based, fluorescence, HTS, primary screen (AID 431);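 note: 0% = DMSO solvent wells and 100% = doxorubicin-treated wells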
# conditions_used: HPDE-C7K KRASV12 cells, Alamar Blue viability, 48 h; at 10 µM; stronger effect = higher value
The whole screen tested about 63,000 compounds, of which about 1,100 (1.7%) were called active. This excerpt belongs to a sample that is enriched for actives. Results with a measured potency or affinity are listed apart.
Give measured cytotoxicity for each item. Keep answers brief.
Entry rule: numbers only, all in %.

# input Please look up its cytotoxicity: Nn1c(Nc2ccccc2)nc2sc3c(c2c1=O)CCC3
# output 61.4

# input Report cytotoxicity for Fc1ccc(-c2ccc(-c3nn4c(-c5ccco5)nnc4s3)o2)cc1 please.
# output 83.7

# input Quick one: cytotoxicity of Cc1c(N=C2SCC(=O)N2c2c(C)n(C)n(-c3ccccc3)c2=O)c(=O)n(-c2ccccc2)n1C ?
# output 15.2

# input Record request: cytotoxicity value, item CCc1nc2sc3c(c2c(=O)n1N)CCC3
# output -6.1

# input Item under review: N#CC1=C(N)SC(N)=C(C#N)C1CCC1CCCCC1 . Reported cytotoxicity?
# output 35.2

# input Return reported cytotoxicity; argument: COCCCNC(=O)CCn1c(=O)c2ccccc2n(CC(=O)Nc2ccccc2C)c1=O
# output 1.7

# input cytotoxicity for O=C(NCCc1ccccc1)C1CCCN(S(=O)(=O)c2cccnc2)C1 (stereo unspecified) ?
# output -7.8

# input What value of cytotoxicity has been recorded for this entry: c1ccc(Nc2ccccc2Nc2ccccn2)nc1
# output -10.1

# input Any idea what its cytotoxicity is? The compound is Cn1nc(-c2ccc(Cl)cc2)c2cc(C(=O)N3CCOCC3)sc21
# output 8.6

# input Report cytotoxicity for c1coc(-c2nn3c(-c4ccco4)nnc3s2)c1 please.
# output -16.1

# input Find the recorded cytotoxicity belonging to Nn1c(-c2cccs2)nc2sc3c(c2c1=O)CCCC3 and report it.
# output -1.9
